QUANTITY: melting point

Some solved entries appear below for comparison.
{"columns": ["MOLECULE", "QUANTITY", "REPORTED"],
 "data": [
  ["CC(=O)N(C(C)=O)c1csc(Br)n1", "melting point", "63 to 65 °C"],
  ["O=C1c2ccccc2C(=O)N1CC1=Nc2ccccc2N(Cc2ccccc2)C(=O)C1", "melting point", "186 °C"],
  ["CC(=C(C#N)N=CN(C)C)N1CCCC1", "melting point", "49 to 53 °C"],
  ["CC(=NO)c1ccc2nnn(Cc3ccc4ncccc4c3)c2n1", "melting point", "259 to 261 °C"],
  ["CCCCc1nc(Sc2ccccc2)c(CO)n1Cc1ccc(-c2ccccc2C(=O)O)cc1", "melting point", "215 °C"],
  ["NCCCN1CCC(c2noc3cc(F)ccc23)CC1", "melting point", "59 to 62 °C"]
]}

Ask | Quote melting point reported for COC(=O)CC(=O)CC(O)/C=C/c1c(-c2ccc(F)cc2)n(C(C)C)c(=O)c2ccccc12 (stereo not given) please.
Reply | 147 to 149 °C

Ask | Quote melting point reported for CCC1CC2CC(=O)OC3OC4(C)CCC(C1C)C23OO4 (single isomer, unassigned; (+)) please.
Reply | 155 to 157 °C

Ask | Quote melting point reported for FC(F)(F)c1nnc2c(Cl)nc3ccc(Cl)cc3n12 please.
Reply | 133 to 135 °C

Ask | Quote melting point reported for O=c1c(C(O)c2ccc(Cl)cc2)c(Cl)nc2n1CCS2 (stereo not given) please.
Reply | 175 to 177 °C

----------
Measured melting point accompanies every entry in the list below.

Some solved entries appear below for comparison.
{"columns": ["MOLECULE", "REPORTED"],
 "data": [
  ["NC(=O)COC(=O)c1ccccc1", "118 °C"],
  ["CC1(C)OC(=O)C(Oc2ccc3ncccc3c2)=C1c1ccc(S(C)(=O)=O)cc1", "171 to 172 °C"],
  ["O=C1CCC(N2Cc3c(NCc4cccc(Cl)c4)cccc3C2=O)C(=O)N1 (stereo not given)", "253 to 255 °C"]
]}

Ask | Quote melting point reported for COc1cc(C2CCCCC2)ccc1C(O)CCC(=O)O (stereo not given) please.
Reply | 105 to 106 °C

Ask | Quote melting point reported for CC1(C)OC(=O)Nc2ccc(-c3ccc(C#N)c(F)c3)cc21 please.
Reply | 272 to 275 °C

----------
QUANTITY: melting point

Ask | Quote melting point reported for O=S(CC(O)CCl)c1ncc(Cl)cn1 (stereo not given) please.
Reply | 170 °C

Ask | Quote melting point reported for Nc1nc(N)c2cc(Cc3ccc(F)cc3)ccc2n1 please.
Reply | 214 to 216 °C

Ask | Quote melting point reported for COc1cc(OC)c(-c2cc3ccccc3n2C)cc1C=CC(=O)c1ccc(S(=O)(=O)NCCN2CCOCC2)cc1 please.
Reply | 167 to 168 °C

Ask | Quote melting point reported for COc1ccc2c(c1)C(=O)c1ccccc1C2=O please.
Reply | 195 to 197 °C

Ask | Quote melting point reported for Oc1cccc(Nc2nnc(Cc3ccncc3)c3ccccc23)c1 please.
Reply | 217 to 219 °C

----------
QUANTITY: melting point

{"columns": ["MOLECULE", "REPORTED"],
 "data": [
  ["CCCCCCOc1ccc(C(=O)Nc2ccc(-n3nc(C(F)(F)F)cc3C(F)(F)F)cc2)cc1", "153 to 155 °C"],
  ["Cc1cc(C)c2c(c1C)OC(C)(CC(=O)O)C2 (stereo unspecified)", "139 to 140 °C"],
  ["N#CCc1cccc(CCc2ccccc2C(=O)O)c1", "113 to 120 °C"],
  ["CCCCSc1cc([N+](=O)[O-])cc(C(O)=NC)c1C(=O)O", "106 to 108 °C"],
  ["C=CC(=O)NCCCCCCCCCCCCCCCCCC", "75 to 77 °C"],
  ["COC(=O)c1[nH]c(C)c(C)c1OCCCl", "122 to 123 °C"]
]}

Ask | Quote melting point reported for COC(=O)C1Cc2cc(-c3ccc(C(C)O)cc3)ccc2O1 (stereo unspecified) please.
Reply | 98 to 100 °C

Ask | Quote melting point reported for COc1ccc(-c2nc3cnccc3[nH]2)c(OCCCCl)c1 please.
Reply | 174 to 176 °C

Ask | Quote melting point reported for NC1CCCCC1N1CCC(Cc2ccc(Cl)cc2)CC1 (stereo unspecified) please.
Reply | 69.1 to 70.4 °C

Ask | Quote melting point reported for CC(=O)OCC1OC(n2c(Cl)nc3c(Cl)cc(Cl)cc32)C(OC(C)=O)C1OC(C)=O (stereo unspecified) please.
Reply | 165 to 167 °C
